- ASSAY_SYSTEM: human A2a receptor (Homo sapiens, UniProt P29274)
- Construct: purchased Perkin-Elmer RBHA2AM400UA; host or cells: HEK293 cells (membranes)
- Sequence (P29274 whole entry): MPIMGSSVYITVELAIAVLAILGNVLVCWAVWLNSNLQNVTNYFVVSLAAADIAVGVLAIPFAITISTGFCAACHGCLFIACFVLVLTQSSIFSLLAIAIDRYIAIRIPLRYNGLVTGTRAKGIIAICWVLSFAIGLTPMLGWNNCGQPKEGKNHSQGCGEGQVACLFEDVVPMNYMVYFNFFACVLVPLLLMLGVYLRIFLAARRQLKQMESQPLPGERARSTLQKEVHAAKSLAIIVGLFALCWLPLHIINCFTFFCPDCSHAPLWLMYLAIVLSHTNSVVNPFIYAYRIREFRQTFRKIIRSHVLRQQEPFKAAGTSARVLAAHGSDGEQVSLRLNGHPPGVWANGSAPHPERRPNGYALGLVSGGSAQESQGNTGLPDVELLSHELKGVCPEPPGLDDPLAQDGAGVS
- PROCEDURE_TEXT: Competition binding assay using Scintillation Proximity technology (A2a activity)
- STUDY_CONDITIONS: membranes from HEK293 cells expressing the human A2a receptor; 0.5 nM tritiated ligand; Cheng-Prusoff
We begin with a simple list: items and their reported Ki.
MEASURE_NAME: Ki (µM)

• COc1cccc2c1nc(N)n1nc(Cc3cccc(C#N)c3F)cc21 = 0.021
• CCN1CCC2(CCN(C(=O)c3cc4c5cccc(OC)c5nc(N)n4n3)C2)C1 (stereo not shown) = 0.043
• Nc1nc2c(F)cccc2c2cc(-c3nnc(Cc4ccc5cccnc5c4)o3)nn12 = 0.007
• COc1cccc2c1nc(N)n1nc(C(=O)NCc3ccc(Br)cc3F)cc21 = 0.001
• Nc1nc2ccccc2c2cc(Cc3cccc4cccnc34)nn12 = 0.01
• COc1cccc2c1nc(N)n1nc(-c3nnc(N4CCOCC4)o3)cc21 = 0.039
• COc1cccc(Cc2cc3c4cccc(OC)c4nc(N)n3n2)c1 = 0.007

---

The entries below are paired with their reported pKi.
- ASSAY_SYSTEM: human A2a receptor (Homo sapiens, UniProt P29274)
- Construct: purchased Perkin-Elmer RBHA2AM400UA; host or cells: HEK293 cells (membranes)
- PROCEDURE_TEXT: Competition binding assay using Scintillation Proximity technology (A2a activity)
- STUDY_CONDITIONS: membranes from HEK293 cells expressing the human A2a receptor; 0.5 nM tritiated ligand; Cheng-Prusoff
pKi: −log10 of the molar value.
MEASURE_NAME: pKi

• COc1cccc2c1nc(N)n1nc(C(=O)N3CCN(c4ccc(F)cc4F)CC3)cc21 [Ex-78] = 9.52
• COc1cccc2c1nc(N)n1nc(C(=O)Nc3ccccc3)cc21 [Ex-80] = 8.52
• COc1cccc2c1nc(N)n1nc(Cc3ccc(F)cc3)cc21 [Ex-5] = 7.92

---

- ASSAY_SYSTEM: human A2a receptor (Homo sapiens)
- Construct: purchased Perkin-Elmer RBHA2AM400UA; host or cells: HEK293 cells (membranes)
- PROCEDURE_TEXT: Competition binding assay using Scintillation Proximity technology (A2a activity)
- STUDY_CONDITIONS: membranes from HEK293 cells expressing the human A2a receptor; 0.5 nM tritiated ligand; Cheng-Prusoff
MEASURE_NAME: Ki (nM)

- COc1cccc2c1nc(N)n1nc(C(=O)N3CCC4(CCN(C(C)=O)C4)C3)cc21 (stereo not shown): 9
- Nc1nc2ccc(F)cc2c2cc(Cc3cccnc3N3CCOCC3)nn12: 123
- COc1cccc2c1nc(N)n1nc(Cc3cccc4[nH]ccc34)cc21: 5
- COc1cccc2c1nc(N)n1nc(Cc3ccc(N4CCNCC4)cc3)cc21: 333
- COc1cccc2c1nc(N)n1nc(Cc3ccc(N4CCOCC4)cc3)cc21: 128
- COc1cccc2c1nc(N)n1nc(Cc3csc(N4CCN(C)CC4)n3)cc21: 373
- Nc1nc2ccc(F)cc2c2cc(Cc3ccccc3N3CCOCC3)nn12: 65
- COc1cccc2c1nc(N)n1nc(C(=O)NCc3cccc4cccnc34)cc21: 0.4
- COc1cccc2c1nc(N)n1nc(CN3Cc4cccnc4C3)cc21: 14
- COc1cccc2c1nc(N)n1nc(Cc3cccc(F)c3)cc21: 2
- COc1cccc2c1nc(N)n1nc(Cc3cccnc3N3CCOCC3)cc21: 15
- Nc1nc2c(F)cccc2c2cc(-c3nnc(-c4cccc5cccnc45)o3)nn12: 131
- COc1cccc2c1nc(N)n1nc(-c3nc(Cc4ccccc4)no3)cc21: 45
- COc1cccc2c1nc(N)n1nc(Cc3ccccc3Cl)cc21: 10
- COc1cccc2c1nc(N)n1nc(Cc3ccc(N4CCN(C)CC4)cc3)cc21: 316
- COc1cccc2c1nc(N)n1nc(C(=O)NCc3ccc(F)cc3F)cc21: 2
